The measurements presented in this section are drawn from patent US9963448B2.

- Test Target: UniProt:Q9UM07
- Sequence (Q9UM07 whole entry): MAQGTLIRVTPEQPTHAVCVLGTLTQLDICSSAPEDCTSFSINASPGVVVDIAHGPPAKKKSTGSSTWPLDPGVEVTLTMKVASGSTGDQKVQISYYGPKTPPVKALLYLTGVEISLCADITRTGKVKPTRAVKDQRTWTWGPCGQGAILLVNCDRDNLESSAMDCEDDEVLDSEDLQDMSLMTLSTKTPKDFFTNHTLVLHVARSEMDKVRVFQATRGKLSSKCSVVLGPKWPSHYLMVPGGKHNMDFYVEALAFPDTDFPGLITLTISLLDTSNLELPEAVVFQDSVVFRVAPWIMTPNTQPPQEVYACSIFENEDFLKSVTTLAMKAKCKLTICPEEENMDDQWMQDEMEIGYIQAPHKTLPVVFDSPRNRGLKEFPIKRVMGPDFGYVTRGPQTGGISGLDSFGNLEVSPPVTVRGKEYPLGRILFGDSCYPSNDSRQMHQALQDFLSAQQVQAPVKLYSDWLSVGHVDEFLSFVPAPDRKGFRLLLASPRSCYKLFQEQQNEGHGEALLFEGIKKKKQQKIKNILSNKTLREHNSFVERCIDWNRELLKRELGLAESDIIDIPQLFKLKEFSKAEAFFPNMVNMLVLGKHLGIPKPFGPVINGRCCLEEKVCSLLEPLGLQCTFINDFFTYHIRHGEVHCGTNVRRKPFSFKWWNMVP
- Assay Info: hPAD4 RFMS (RapidFire mass spectrometry) PAD4 inhibition assay;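 also: grade E means pIC50 at most 4 and F means pIC50 4.0 to 5.0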
- Format: biochemical
- Applied Conditions: hPAD4 enzyme, RFMS readout; pIC50=−log(IC50); read-out: hPAD4 RFMS pIC50 (converted)
Recorded IC50 for the following compounds

[
  {
    "Compound": "COc1cc(C(=O)N2C[C@H]3CC[C@@H]2[C@@H]3N)cc2nc(-c3cc4ccc(C)nc4n3CC3CC3)n(C)c12",
    "IC50": "< 1000 nM"
  },
  {
    "Compound": "COc1cc(C(=O)N2CCC3CCNC3C2)cc2nc(-c3cc4cccnc4n3CC3CC3)n(C)c12 (centres unmarked)",
    "IC50": "< 1000 nM"
  },
  {
    "Compound": "COc1cc(C(=O)N2CCC(F)C(N)C2)cc2nc(-c3cc4cccnc4n3CC3CC3)n(C)c12 (racemic) [Compound I-75]",
    "IC50": "1000 to 10000 nM"
  },
  {
    "Compound": "CCn1c(-c2nc3cc(C(=O)N4C[C@H]5CC[C@@H]4[C@@H]5N)cc(F)c3n2C)cc2cccnc21",
    "IC50": "1000 to 10000 nM"
  },
  {
    "Compound": "COc1ccc2cc(-c3nc4cc(C(=O)N5CCC[C@@H](N)C5)cc(OC)c4n3C)n(CC3CC3)c2n1",
    "IC50": "< 1000 nM"
  }
]

**Q:** I'd like to know its IC50. The compound in question is CCn1c(-c2nc3cc(C(=O)N4CC5CCC4C5N)cc(OC)c3n2C)cc2ccc(OC)nc21 (racemic)
**A:** < 1000 nM

**Q:** Similarly, `COc1cc(C(=O)N2C[C@@H](N)CC[C@H]2C)cc2nc(-c3cc4cccnc4n3CC3CC3)n(C)c12` ?
**A:** < 1000 nM

**Q:** Similarly, `COc1cc(C(=O)N2CC[C@@H]3CCN[C@@H]3C2)cc2nc(-c3cc4cncnc4n3CC3CC3)n(C)c12` ?
**A:** 10000 to 100000 nM

**Q:** Similarly, Cn1c(-c2cc3cccnc3n2CC2CC2)nc2cc(C(=O)N3C4CCC3CC(N)C4)ccc21 (centres unmarked) ?
**A:** > 100000 nM

**Q:** Similarly, Cn1c(-c2cc3cccnc3n2CC2CC2)nc2cc(C(=O)N3CCC4CNC4C3)ccc21 (centres unmarked) ?
**A:** 10000 to 100000 nM

**Q:** Similarly, `Cn1c(-c2cc3cccnc3n2CC2CC2)nc2cc(C(=O)N3CC[C@@H](F)[C@H](N)C3)ccc21` ?
**A:** 10000 to 100000 nM
